Target: T1, D2 domain of human IL2Rγ extracellular domain expressed with a C-terminal myc-myc-hexahistidine tag (human)
T1 construct: also called human IL2Rγ domain 2
T1 chain: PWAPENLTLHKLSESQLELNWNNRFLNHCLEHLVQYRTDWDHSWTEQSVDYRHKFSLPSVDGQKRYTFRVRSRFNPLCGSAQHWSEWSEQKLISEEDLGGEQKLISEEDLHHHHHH
Test: SPR, mAb captured on anti-hFc, 37 C
Description: Equilibrium dissociation constants (KD values) for IL-2Rγ binding to purified anti-IL2Rγ monoclonal antibodies were determined using a Biacore 4000 instrument equipped with a real-time surface plasmon resonance biosensor. All binding studies were performed in 10 mM HEPES, 150 mM NaCl, 3 mM EDTA, and 0.05% v/v Surfactant Tween-20, pH 7.4 (HBS-ET) running buffer at 25° C. and 37° C. […]
// boundary case: 100 nM Ag Bound equal to 1 RU maps to 0.0; strictly smaller maps to 1.0

binder	assignedClass
H4H12889P (antibody, human IgG4 S228P, kappa, V domains shown, human IgG4; also called REGN7257) VH: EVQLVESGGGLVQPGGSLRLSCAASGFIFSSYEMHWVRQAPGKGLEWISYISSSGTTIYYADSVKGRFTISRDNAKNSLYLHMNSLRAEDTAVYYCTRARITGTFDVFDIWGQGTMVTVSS VL: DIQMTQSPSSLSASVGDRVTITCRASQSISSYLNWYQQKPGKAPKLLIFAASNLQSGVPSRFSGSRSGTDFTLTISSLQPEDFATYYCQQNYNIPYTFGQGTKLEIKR	1.0
H4H12858P (antibody, human IgG4 S228P, kappa, V domains shown, human IgG4; also called REGN9433) VH: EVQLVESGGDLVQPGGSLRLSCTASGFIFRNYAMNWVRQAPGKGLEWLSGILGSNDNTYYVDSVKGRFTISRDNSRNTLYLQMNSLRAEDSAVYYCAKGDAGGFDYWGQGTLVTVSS VL: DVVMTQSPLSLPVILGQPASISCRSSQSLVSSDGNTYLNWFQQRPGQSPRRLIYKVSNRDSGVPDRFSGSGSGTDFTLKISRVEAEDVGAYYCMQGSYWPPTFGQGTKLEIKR	1.0
H4H12884P (antibody, human IgG4 S228P, kappa, V domains shown, human IgG4) VH: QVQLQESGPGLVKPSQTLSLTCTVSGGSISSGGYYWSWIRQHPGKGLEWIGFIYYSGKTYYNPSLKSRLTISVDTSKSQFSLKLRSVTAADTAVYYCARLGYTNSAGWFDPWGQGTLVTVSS VL: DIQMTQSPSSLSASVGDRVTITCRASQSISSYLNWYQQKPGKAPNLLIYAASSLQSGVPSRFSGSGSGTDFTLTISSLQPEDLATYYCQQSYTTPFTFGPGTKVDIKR	0.0
H4H12899P (antibody, human IgG4 S228P, kappa, V domains shown, human IgG4) VH: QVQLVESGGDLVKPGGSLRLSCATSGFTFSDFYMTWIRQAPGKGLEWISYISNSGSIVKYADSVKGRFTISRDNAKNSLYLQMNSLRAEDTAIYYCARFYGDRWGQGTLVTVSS VL: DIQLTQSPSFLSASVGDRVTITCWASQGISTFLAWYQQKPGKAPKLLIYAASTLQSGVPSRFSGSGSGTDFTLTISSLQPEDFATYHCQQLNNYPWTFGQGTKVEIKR	1.0
H4H12886P (antibody, human IgG4 S228P, kappa, V domains shown, human IgG4) VH: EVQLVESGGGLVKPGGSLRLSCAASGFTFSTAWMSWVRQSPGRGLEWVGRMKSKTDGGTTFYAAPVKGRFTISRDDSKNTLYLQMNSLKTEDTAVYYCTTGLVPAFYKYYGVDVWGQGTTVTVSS VL: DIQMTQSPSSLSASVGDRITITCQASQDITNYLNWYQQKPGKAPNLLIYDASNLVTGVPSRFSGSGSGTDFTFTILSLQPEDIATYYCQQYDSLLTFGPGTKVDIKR	0.0
